Biological target: BTK (Homo sapiens, UniProt Q06187)
Construct: the BTK open reading frame (ORF) was first shuttled from a pcDNA-DEST40-BTK vector; expressed in transfected cells; host or cells: HEK293A (Invitrogen R70507), lentiviral transduction, blasticidin selection
Sequence (Q06187 whole entry): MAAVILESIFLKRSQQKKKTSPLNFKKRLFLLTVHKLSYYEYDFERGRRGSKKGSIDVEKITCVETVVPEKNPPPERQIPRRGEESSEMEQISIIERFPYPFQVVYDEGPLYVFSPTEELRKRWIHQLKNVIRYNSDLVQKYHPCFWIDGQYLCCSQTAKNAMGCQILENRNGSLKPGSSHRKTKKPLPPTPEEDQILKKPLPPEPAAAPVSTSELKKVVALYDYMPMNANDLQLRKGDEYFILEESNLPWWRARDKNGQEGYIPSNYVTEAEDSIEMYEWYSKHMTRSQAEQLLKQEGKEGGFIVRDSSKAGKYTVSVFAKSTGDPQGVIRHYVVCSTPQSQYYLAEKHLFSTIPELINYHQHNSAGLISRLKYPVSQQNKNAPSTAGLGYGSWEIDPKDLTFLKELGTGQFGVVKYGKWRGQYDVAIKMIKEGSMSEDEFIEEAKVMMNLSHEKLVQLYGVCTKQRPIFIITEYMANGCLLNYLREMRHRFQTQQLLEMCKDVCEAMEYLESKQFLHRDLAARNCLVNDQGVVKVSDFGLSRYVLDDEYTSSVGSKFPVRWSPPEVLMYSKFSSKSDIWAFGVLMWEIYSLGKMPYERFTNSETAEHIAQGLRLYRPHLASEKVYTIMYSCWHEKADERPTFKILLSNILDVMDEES
Assay: BTK-GFP protein abundance flow cytometry assay in HEK293A
Format: cell-based
Details: % protein remaining at the concentration at which maximum degradation is seen; HEK293A, 24 h
quantityName: BTK degradation Amax (%)
One number for each entry, in %.

Recorded results for 5 compounds are shown here.
{"recordSmiles": "COc1ccc(C(=O)N2CCC3(CCN(C(=O)CN4CCN(c5cc(Nc6ncc(C(=O)Nc7c(C)cccc7Cl)s6)nc(C)n5)CC4)CC3)CC2)cc1N1CCC(=O)NC1=O", "quantityName": "BTK degradation Amax", "readoutValue": 0.9}
{"recordSmiles": "COc1cc(C(=O)NCCCCN2CCN(Cc3ccc(-c4cc5c(-c6cc(F)cc(NC(=O)c7ccc(C(C)(C)O)cc7F)c6C)ncnc5[nH]4)cc3)CC2)ccc1N1CCC(=O)NC1=O", "quantityName": "BTK degradation Amax", "readoutValue": 51.1}
{"recordSmiles": "Cc1c(NC(=O)c2ccc(C(C)(C)O)cc2F)cc(F)cc1-c1ncnc2[nH]c(C3=CCN(C(=O)CCCCN4CCC(Oc5ccc(N6CCC(=O)NC6=O)cc5)CC4)CC3)cc12", "quantityName": "BTK degradation Amax", "readoutValue": 21.7}
{"recordSmiles": "Cc1ccc(OCC(=O)N2CCN(CCOc3ccc(-c4cc5c(-c6cc(F)cc(NC(=O)c7ccc(C(C)(C)O)cc7F)c6C)ncnc5[nH]4)cc3)CC2)cc1N1CCC(=O)NC1=O", "quantityName": "BTK degradation Amax", "readoutValue": 3.1}
{"recordSmiles": "Cc1c(NC(=O)c2ccc(C(C)(C)O)cc2F)cc(F)cc1-c1ncnc2[nH]c(-c3ccc(CNCCCCCCOc4cccc(N5CCC(=O)NC5=O)c4)cc3)cc12", "quantityName": "BTK degradation Amax", "readoutValue": 25.9}

I would be grateful if you could provide BTK degradation Amax for each of the following entries.
1. Cc1c(NC(=O)c2ccc(C(C)(C)O)cc2F)cc(F)cc1-c1ncnc2[nH]c(-c3ccc(CN4CCC5(CCN(CCOc6ccc(N7CCC(=O)NC7=O)c(Cl)c6)CC5)CC4)cc3)cc12
2. Cc1c(NC(=O)N2CC(O)(CC(C)(C)C)C2)cc(F)cc1-c1ncnc2[nH]c(-c3ccc(OCCCN4CCN(C(=O)COc5ccc(Cl)c(N6CCC(=O)NC6=O)c5)CC4)nc3)cc12

// result
32.8
4.6
